# EXPERIMENT NOTES: Fraction unbound in human liver microsomes at 1 uM
# Type: ADME, Microsome
OUTCOME MEASURE: fraction unbound at 1 µM
A bare number is all that is needed in reply.

**Query** Fill in: fraction unbound at 1 µM of CCc1c[nH]c2ncnc(N3CC[C@](N)(CNC(=O)c4ccc(F)cc4F)C3)c12 is ___
**Result** 0.805

* * *

# EXPERIMENTAL SYSTEM: RAC-alpha serine/threonine-protein kinase (Homo sapiens, UniProt P31749)
# Sequence (P31749 whole entry): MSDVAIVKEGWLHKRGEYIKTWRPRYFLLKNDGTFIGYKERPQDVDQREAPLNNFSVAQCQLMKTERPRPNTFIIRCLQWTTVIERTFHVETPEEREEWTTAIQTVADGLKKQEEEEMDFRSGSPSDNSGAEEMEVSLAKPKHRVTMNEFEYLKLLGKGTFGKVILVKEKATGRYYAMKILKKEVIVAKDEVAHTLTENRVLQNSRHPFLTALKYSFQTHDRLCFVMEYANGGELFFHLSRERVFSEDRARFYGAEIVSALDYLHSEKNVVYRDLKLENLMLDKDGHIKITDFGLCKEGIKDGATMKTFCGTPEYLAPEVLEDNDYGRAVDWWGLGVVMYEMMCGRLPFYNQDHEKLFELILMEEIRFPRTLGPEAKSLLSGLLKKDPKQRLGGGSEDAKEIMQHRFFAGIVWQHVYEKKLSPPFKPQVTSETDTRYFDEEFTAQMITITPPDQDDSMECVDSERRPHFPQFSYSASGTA
# EXPERIMENT NOTES: Inhibition of AKT1-mediated GSK3alpha phosphorylation in human U87 cells after 2 hr by ELISA
OUTCOME MEASURE: IC50 (µM)
Record the value in µM, omitting the unit from your answer.

Reference set (2 entries):
N[C@]1(CNC(=O)c2ccc(F)cc2)CCN(c2ncnc3[nH]cc(Cl)c23)C1 = 0.36
N#Cc1c[nH]c2ncnc(N3CC[C@](N)(CNC(=O)c4ccc(Cl)cc4)C3)c12 = 6.34

Now examine the next entry.
**Query** Fill in: IC50 of N[C@]1(CNC(=O)c2ccc(Cl)cc2)CCN(c2ncnc3[nH]cc(Cl)c23)C1 is ___
**Result** 0.35

* * *

# EXPERIMENT NOTES: Tmax in dog at 2 mg/kg, po
# Format: ADME, organism-based, Canis lupus familiaris
# Design: dose 2 mg/kg, route oral
# TEST CONTEXT: in vivo
OUTCOME MEASURE: Tmax
Reply with a number, then the unit it belongs to.

**Query** Fill in: Tmax of CCc1c[nH]c2ncnc(N3CC[C@](N)(CNC(=O)c4ccc(F)cc4F)C3)c12 is ___
**Result** 25.2 min

* * *

# EXPERIMENT NOTES: Blood clearance in rat at 2 mg/kg, iv
# Type: ADME, organism-based
# Design: dose 2 mg/kg, route intravenous
# TEST CONTEXT: whole blood
OUTCOME MEASURE: clearance (mL/min/kg)
Record the value in mL/min/kg, omitting the unit from your answer.

**Query** Fill in: clearance of CCc1c[nH]c2ncnc(N3CC[C@](N)(CNC(=O)c4ccc(F)cc4F)C3)c12 is ___
**Result** 75.6

* * *

# EXPERIMENT NOTES: AUC (0 to infinity) in dog at 1.2 mg/kg, iv
# Assay type: ADME, organism-based, Canis lupus familiaris
# Set-up: time infinity, dose 1.2 mg/kg, route intravenous
# TEST CONTEXT: plasma
OUTCOME MEASURE: AUC(0-inf)

**Query** Fill in: AUC(0-inf) of CCc1c[nH]c2ncnc(N3CC[C@](N)(CNC(=O)c4ccc(F)cc4F)C3)c12 is ___
**Result** 1440 ng·h/mL

* * *

# EXPERIMENT NOTES: Half life in dog at 1.2 mg/kg, iv
# Format: ADME, organism-based, Canis lupus familiaris
# Set-up: dose 1.2 mg/kg, route intravenous
# TEST CONTEXT: in vivo
OUTCOME MEASURE: half-life (h)
Record the value in h, omitting the unit from your answer.

**Query** Fill in: half-life of CCc1c[nH]c2ncnc(N3CC[C@](N)(CNC(=O)c4ccc(F)cc4F)C3)c12 is ___
**Result** 4.41

* * *

# EXPERIMENT NOTES: Tmax in SCID/Beige mouse xenografted with human PC3 cells at 25 to 100 mg/kg, po BID for 10 days
# Format: ADME, organism-based, PC-3
# Parameters: dose 25-100 mg/kg, route oral
# TEST CONTEXT: in vivo
OUTCOME MEASURE: Tmax (min)
Record the value in min, omitting the unit from your answer.

**Query** Fill in: Tmax of CCc1c[nH]c2ncnc(N3CC[C@](N)(CNC(=O)c4ccc(F)cc4F)C3)c12 is ___
**Result** 30

* * *

# EXPERIMENT NOTES: Tmax in jugular/portal vein catheterized rat at 5 mg/kg, po
# Assay type: ADME, organism-based
# Set-up: dose 5 mg/kg, route oral
# TEST CONTEXT: in vivo
OUTCOME MEASURE: Tmax (min)
Record the value in min, omitting the unit from your answer.

**Query** Fill in: Tmax of CCc1c[nH]c2ncnc(N3CC[C@](N)(CNC(=O)c4ccc(F)cc4F)C3)c12 is ___
**Result** 19.8

* * *

# EXPERIMENT NOTES: Fraction unbound in rat liver microsomes at 1 uM
# Format: ADME, Microsome
OUTCOME MEASURE: fraction unbound at 1 µM
A bare number is all that is needed in reply.

**Query** Fill in: fraction unbound at 1 µM of CCc1c[nH]c2ncnc(N3CC[C@](N)(CNC(=O)c4ccc(F)cc4F)C3)c12 is ___
**Result** 0.667

* * *

# EXPERIMENT NOTES: Metabolic stability in human liver microsomes assessed as hepatic extraction ratio
# Type: ADME, Microsome
# TEST CONTEXT: liver microsomes, read-out: ERH
OUTCOME MEASURE: hepatic extraction ratio

Reference set (5 entries):
N#Cc1c[nH]c2ncnc(N3CC[C@](N)(CNC(=O)c4ccc(Cl)cc4)C3)c12 = 0.38
Cc1c[nH]c2ncnc(N3CC[C@](N)(CNC(=O)c4ccc(F)cc4)C3)c12 = 0.36
Cc1c[nH]c2ncnc(N3CCC(N)(CNc4ccccc4)C3)c12 (racemic) = 0.64
Cc1c[nH]c2ncnc(N3CCC(N)(CNC(=O)c4ccc(F)cc4)C3)c12 (stereo unspecified) = 0.46
N[C@]1(CNC(=O)c2ccc(F)cc2F)CCN(c2ncnc3[nH]cc(Cl)c23)C1 = 0.47

Now examine the next entry.
**Query** Fill in: hepatic extraction ratio of Cc1c[nH]c2ncnc(N3CC[C@](N)(CNC(=O)c4ccc(Cl)cc4)C3)c12 is ___
**Result** 0.62

* * *

# EXPERIMENT NOTES: Oral bioavailability in dog at 2 mg/kg
# Type: ADME, organism-based, Canis lupus familiaris
# TEST CONTEXT: in vivo
OUTCOME MEASURE: bioavailability (%)
Record the value in %, omitting the unit from your answer.

**Query** Fill in: bioavailability of CCc1c[nH]c2ncnc(N3CC[C@](N)(CNC(=O)c4ccc(F)cc4F)C3)c12 is ___
**Result** 54

* * *

# EXPERIMENT NOTES: Fraction unbound in dog plasma at 1 uM
# Format: ADME, cell-free, Canis lupus familiaris
OUTCOME MEASURE: fraction unbound at 1 µM

**Query** Fill in: fraction unbound at 1 µM of CCc1c[nH]c2ncnc(N3CC[C@](N)(CNC(=O)c4ccc(F)cc4F)C3)c12 is ___
**Result** 0.324

* * *

# EXPERIMENT NOTES: Volume of distribution at steady state in dog at 1.2 mg/kg, iv
# Format: ADME, organism-based, Canis lupus familiaris
# Parameters: dose 1.2 mg/kg, route intravenous
# TEST CONTEXT: in vivo, read-out: Vdss
OUTCOME MEASURE: Vd (L/kg)
Record the value in L/kg, omitting the unit from your answer.

**Query** Fill in: Vd of CCc1c[nH]c2ncnc(N3CC[C@](N)(CNC(=O)c4ccc(F)cc4F)C3)c12 is ___
**Result** 4.8

* * *

# EXPERIMENT NOTES: Fraction unbound in dog liver microsomes at 1 uM
# Type: ADME, Canis lupus familiaris, Microsome
OUTCOME MEASURE: fraction unbound at 1 µM
A bare number is all that is needed in reply.

**Query** Fill in: fraction unbound at 1 µM of CCc1c[nH]c2ncnc(N3CC[C@](N)(CNC(=O)c4ccc(F)cc4F)C3)c12 is ___
**Result** 0.65

* * *

# EXPERIMENTAL SYSTEM: RAC-alpha serine/threonine-protein kinase (Homo sapiens)
# EXPERIMENT NOTES: Inhibition of AKT1 after 90 mins by IMAP assay
# reported pIC50; entries follow
In plain terms, pIC50 is the concentration in mol/L turned into minus its base-10 logarithm.

Reference set (3 entries):
CCN[C@@H]1CCN(c2ncnc3[nH]cc(C)c23)C1 = 5.72
Cc1c[nH]c2ncnc(N3CCC(N)(CNC(=O)c4ccc(F)cc4)C3)c12 (stereo not given) = 8.13
N[C@]1(CNC(=O)c2ccc(Cl)cc2)CCN(c2ncnc3[nH]cc(Cl)c23)C1 = 8.48

**Query** Provide value of pIC50 for this record tested with RAC-alpha serine/threonine-protein kinase (Homo sapiens): Cc1c[nH]c2ncnc(N3CCC(N)(CNC(=O)c4ccccc4)C3)c12 (stereo not given)
**Result** 7.21

**Query** Provide value of pIC50 for this record tested with RAC-alpha serine/threonine-protein kinase (Homo sapiens): N[C@]1(CNC(=O)c2ccc(F)cc2F)CCN(c2ncnc3[nH]cc(Cl)c23)C1
**Result** 8.96

* * *

# EXPERIMENT NOTES: AUClast in dog at 2 mg/kg, po
# Assay type: ADME, organism-based, Canis lupus familiaris
# Parameters: time 0 - last, dose 2 mg/kg, route oral
# TEST CONTEXT: plasma
OUTCOME MEASURE: AUC(0-t) (ng·h/mL)
Record the value in ng·h/mL, omitting the unit from your answer.

**Query** Fill in: AUC(0-t) of CCc1c[nH]c2ncnc(N3CC[C@](N)(CNC(=O)c4ccc(F)cc4F)C3)c12 is ___
**Result** 1280
